Entries and their measured % binding @ 100 nM vWF follow.
system: full length human vWF (SEQ ID NO 7); assay: dot blot KD determination and extent of binding, full length human vWF; conditions: Phase 3 modification; extent of aptamer binding at 100 nM full length human vWF;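 note: dot blot binding of aptamers to full length human vWF across a protein titration, incubated 30 minutes at room temperature in 1x DPBS with BSA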
Oligonucleotides are written 5' to 3', each unit as a sugar letter and its base; * is a phosphorothioate linkage, no mark a phosphodiester; rarer units and linkages stand in square brackets, end groups in braces. Plain capitals give the bases only. [invdT] = inverted (3'-3') thymidine; d = 2'-deoxy (DNA); m = 2'-O-methyl
Report as a plain number; the unit % is understood.

Worked cases, answers included:
Substance	% binding @ 100 nM vWF [%]
ARC1373: ARC1361 with single phosphorothioate phosphate backbone modification (mGmCmGmUdGdCdAmGmUmGmCmCmUmUmCmGmGmCdCmGdTmGdCdGdG*dTmGmCdCmUdCdCmGmUdCmAmCmGmC[invdT]; aptamer)	33.0
ARC1364: ARC1361 with single phosphorothioate phosphate backbone modification (mGmCmGmUdGdC*dAmGmUmGmCmCmUmUmCmGmGmCdCmGdTmGdCdGdGdTmGmCdCmUdCdCmGmUdCmAmCmGmC[invdT]; aptamer)	36.9

Now consider a different substance.
input: Write % binding @ 100 nM vWF of ARC1361: ARC1346 with a mC to dC modification at position 36 (mGmCmGmUdGdCdAmGmUmGmCmCmUmUmCmGmGmCdCmGdTmGdCdGdGdTmGmCdCmUdCdCmGmUdCmAmCmGmC[invdT]) ; system used: full length human vWF (SEQ ID NO 7)
output: 38.5
